Target: T1, MHC class I allele B*0702 (bound via biotin to streptavidin-coated plate)
T1 construct: iTopia MHC class I monomer on the plate; placeholder peptide and b2M removed, then reconstituted with test peptide and fresh b2M; also called B7; HLA B7
Test: iTopia peptide binding assay
Reported % of positive control peptide binding is given for each of the following binders.
Return type: number; implicit unit %.

Examples from the recorded data:
>>> recorded_result("LPRDVLAQL [5T4 9 mer peptide 113 LPRDVLAQL]")
79
>>> recorded_result("SEAARTVKC (also called Peptide No 35) [5T4 9 mer peptide 35 SEAARTVKC]")
0
>>> recorded_result("RLDEVRAGA (also called Peptide No 65) [5T4 9 mer peptide 65 RLDEVRAGA]")
32

For reference, reported % of positive control peptide binding for PFAFSGSNA (also called Peptide No 80) [5T4 9 mer peptide 80 PFAFSGSNA] stands at 7

Hello, the source for this data is patent US20090280138A1, in case you need it.
